system: B16 cells; test: Melanotic melanoma test, i.p. inoculated B16 melanoma; type: in vivo, BDF1 mice; conditions: B16, i.p. days 1, 5 and 9, at maximal effective dose; 60 days
The entries below come with measured Long Term Survivors values attached.

compound: NC1CCCCC1N.O.O.O=C([O-])CN(CCO)CC(=O)[O-].[Pt+2]
Long Term Survivors: 2/6
--
compound: NC1CCCCC1N.O=C([O-])CN(CC(=O)[O-])Cc1ccccc1.[Pt+2]
Long Term Survivors: 1/6
--
compound: CN(CC(=O)[O-])CC(=O)[O-].N[C@@H]1CCCC[C@H]1N.[Pt+2] [Identifier No. 11a, mono-N--methyliminodiacetato]
Long Term Survivors: 2/6
--
compound: NC1CCCCC1N.O.O.O=C([O-])CN(CC(=O)[O-])c1ccccc1.[Pt+2]
Long Term Survivors: 0/6
--
compound: N.N.[Cl][Pt][Cl] [DDP, diamminedichloroplatinum II, reference compound]
Long Term Survivors: 1/6
--
compound: CN(CC(=O)[O-])CC(=O)[O-].NC1CCCCC1N.O.[Pt+2]
Long Term Survivors: 0/6
--
compound: N[C@@H]1CCCC[C@H]1N.O=C([O-])CN(CCO)CC(=O)[O-].[Pt+2] [Identifier No. 12a, mono-N--hydroxyethyliminodiacetato]
Long Term Survivors: 4/6
